system_name: T1, monkey IL-25 expressed with a C-terminal myc-myc-hexahistidine tag (M. fascicularis (cynomolgus monkey))
T1 construct: also called Monkey IL-25-MMH; MfIL-25-MMH
T1 chain: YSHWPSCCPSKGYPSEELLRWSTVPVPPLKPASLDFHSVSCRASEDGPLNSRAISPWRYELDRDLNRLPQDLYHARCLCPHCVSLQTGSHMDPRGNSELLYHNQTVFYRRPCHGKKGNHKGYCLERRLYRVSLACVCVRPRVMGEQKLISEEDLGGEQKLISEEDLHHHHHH
procedure_details: SPR Biacore, antibody captured, 37C;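 further: biacore 4000 surface plasmon resonance biosensor measuring binding of IL-25-MMH to purified anti-IL-25 antibodies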
Reported values of 100 nM Monkey IL-25-MMH Bound (RU) for individual entries

| binder | 100 nM Monkey IL-25-MMH Bound (RU) |
| --- | --- |
| H4H10897P (antibody, human IgG4, V domains shown, H4H prefix = human IgG4 Fc) VH: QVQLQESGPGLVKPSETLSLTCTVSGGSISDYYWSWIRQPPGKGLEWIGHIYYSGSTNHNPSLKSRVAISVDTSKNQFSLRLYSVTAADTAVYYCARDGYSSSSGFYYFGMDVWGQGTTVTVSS VL: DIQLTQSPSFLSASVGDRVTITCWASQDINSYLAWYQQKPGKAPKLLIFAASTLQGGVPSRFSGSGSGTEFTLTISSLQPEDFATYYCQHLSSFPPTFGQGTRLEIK | 49 |
| H4H10863P (antibody, human IgG4, V domains shown, H4H prefix = human IgG4 Fc) VH: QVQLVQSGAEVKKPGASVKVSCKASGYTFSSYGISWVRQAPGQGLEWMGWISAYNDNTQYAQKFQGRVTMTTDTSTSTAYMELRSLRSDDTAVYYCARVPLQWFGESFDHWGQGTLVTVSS VL: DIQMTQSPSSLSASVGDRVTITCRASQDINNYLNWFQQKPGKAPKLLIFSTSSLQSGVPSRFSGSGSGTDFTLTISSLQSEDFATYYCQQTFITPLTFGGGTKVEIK | 51 |
| H4H10907P (antibody, human IgG4, V domains shown, H4H prefix = human IgG4 Fc) VH: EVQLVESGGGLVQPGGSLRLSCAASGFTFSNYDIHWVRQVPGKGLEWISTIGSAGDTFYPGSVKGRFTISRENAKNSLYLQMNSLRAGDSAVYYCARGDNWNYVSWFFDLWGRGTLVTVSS VL: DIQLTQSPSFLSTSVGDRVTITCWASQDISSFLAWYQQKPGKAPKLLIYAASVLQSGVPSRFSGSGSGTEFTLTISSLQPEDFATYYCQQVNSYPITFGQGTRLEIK | 50 |

Sourced from patent US20160083466A1
